- Test system: A549 human lung adenocarcinoma
- test.description: MTT cytotoxicity assay, A549
- Format: cell-based
- recorded.conditions: 72 hours, read-out: TCS50
pIC50: −log10 of the molar value.

compound.structure	pIC50
CC(=O)OC[C@@]1(C(=O)O)CC[C@]2(C)[C@H](CC[C@@H]3[C@@]4(C)CC[C@H](OC(C)=O)C(C)(C)[C@@H]4CC[C@]32C)C1=O	6.00

* * *

- Tested on: B16F mouse melanoma, metastatic
- test.description: MTT cytotoxicity assay, B16F
- Type: cell-based
- recorded.conditions: 72 hours, read-out: TCS50
pIC50: −log10 of the molar value.
assay.metric: pIC50

molecule	assay.metric	recorded.value
CC(=O)OC[C@@]1(C(=O)O)CC[C@]2(C)[C@H](CC[C@@H]3[C@@]4(C)CC[C@H](OC(C)=O)C(C)(C)[C@@H]4CC[C@]32C)C1=O [I.3]	pIC50	5.33

Where do the numbers come from? From patent US7041701B2.
